Biological target: CNGA3 plus CNGB3 T383fsX channels (Homo sapiens)
Construct: expressed in transfected cells; host or cells: Xenopus laevis oocytes injected with cRNA transcribed from pGEMHE constructs
Sequence (Q16281 whole entry): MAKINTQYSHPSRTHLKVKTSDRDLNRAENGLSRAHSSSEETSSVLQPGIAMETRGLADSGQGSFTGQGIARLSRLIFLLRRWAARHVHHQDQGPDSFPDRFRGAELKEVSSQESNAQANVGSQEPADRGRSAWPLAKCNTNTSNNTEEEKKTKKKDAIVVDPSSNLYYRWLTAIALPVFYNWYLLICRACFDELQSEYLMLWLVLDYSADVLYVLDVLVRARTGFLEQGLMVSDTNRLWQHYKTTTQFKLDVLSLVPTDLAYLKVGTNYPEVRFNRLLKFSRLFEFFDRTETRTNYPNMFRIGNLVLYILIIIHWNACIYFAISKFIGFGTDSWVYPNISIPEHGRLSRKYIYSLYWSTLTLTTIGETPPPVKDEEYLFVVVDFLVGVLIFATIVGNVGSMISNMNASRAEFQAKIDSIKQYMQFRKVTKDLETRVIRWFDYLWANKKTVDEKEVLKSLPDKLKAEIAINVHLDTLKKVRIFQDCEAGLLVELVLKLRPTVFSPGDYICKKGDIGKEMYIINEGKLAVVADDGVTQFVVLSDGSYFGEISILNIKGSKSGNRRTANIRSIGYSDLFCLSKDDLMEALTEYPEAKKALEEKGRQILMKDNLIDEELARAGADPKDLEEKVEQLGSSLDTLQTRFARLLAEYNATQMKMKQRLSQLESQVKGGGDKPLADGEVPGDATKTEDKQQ
Assay: Inside-out patch-clamp recording of channels expressed in Xenopus oocytes (CNGB3 T383fsX)
Type: biochemical
Conditions: +80 mV, Hill fit; mean±SEM, n=8; read-out: apparent CPT-cGMP affinity K1/2, CPT-cGMP (channel activation)
Description: For heterologous expression in Xenopus laevis oocytes, identical amounts of cDNA were linearized using SphI or NheI, and capped cRNA was transcribed in vitro using the T-7 RNA polymerase mMESSAGE mMACHINE® kit (Ambion, Austin, TX). cRNA concentrations and relative amounts were determined by denaturing gel electrophoresis and KODAK 1D image analysis software (Rochester, NY), as well as by spectrophotometry. […]
OBSERVED PROPERTY: EC50 (µM)
Please state the figure in µM; there is no need to write the unit.

In: What value of EC50 has been reported for the following molecule? `Nc1nc2c(nc(Sc3ccc(Cl)cc3)n2[C@@H]2O[C@@H]3COP(=O)(O)O[C@H]3[C@H]2O)c(=O)[nH]1`
Out: 0.105

----------
Biological target: CNGA3 plus CNGB3 T383fsX channels (Homo sapiens)
Construct: expressed in transfected cells; host or cells: Xenopus laevis oocytes injected with cRNA transcribed from pGEMHE constructs
Experiment: Inside-out patch-clamp recording of channels expressed in Xenopus oocytes (CNGB3 T383fsX)
Type: biochemical
Conditions: representative patch, Figure 1B; read-out: K1/2, cGMP, representative dose-response for CPT-cGMP activation
OBSERVED PROPERTY: EC50 (nM)
# value in nM; strip the unit string

In: Which EC50 value is on record for Nc1nc2c(nc(Sc3ccc(Cl)cc3)n2[C@@H]2O[C@@H]3COP(=O)(O)O[C@H]3[C@H]2O)c(=O)[nH]1 [CPT-cGMP] ?
Out: 111

----------
Target: CNGA3 plus CNGB3-F525N channels (Homo sapiens, UniProt Q16281+Q9NQW8, F525N)
Construct: expressed in transfected cells; host or cells: Xenopus laevis oocytes injected with cRNA transcribed from pGEMHE constructs
Sequence (Q9NQW8 whole entry F525N, one chain of several): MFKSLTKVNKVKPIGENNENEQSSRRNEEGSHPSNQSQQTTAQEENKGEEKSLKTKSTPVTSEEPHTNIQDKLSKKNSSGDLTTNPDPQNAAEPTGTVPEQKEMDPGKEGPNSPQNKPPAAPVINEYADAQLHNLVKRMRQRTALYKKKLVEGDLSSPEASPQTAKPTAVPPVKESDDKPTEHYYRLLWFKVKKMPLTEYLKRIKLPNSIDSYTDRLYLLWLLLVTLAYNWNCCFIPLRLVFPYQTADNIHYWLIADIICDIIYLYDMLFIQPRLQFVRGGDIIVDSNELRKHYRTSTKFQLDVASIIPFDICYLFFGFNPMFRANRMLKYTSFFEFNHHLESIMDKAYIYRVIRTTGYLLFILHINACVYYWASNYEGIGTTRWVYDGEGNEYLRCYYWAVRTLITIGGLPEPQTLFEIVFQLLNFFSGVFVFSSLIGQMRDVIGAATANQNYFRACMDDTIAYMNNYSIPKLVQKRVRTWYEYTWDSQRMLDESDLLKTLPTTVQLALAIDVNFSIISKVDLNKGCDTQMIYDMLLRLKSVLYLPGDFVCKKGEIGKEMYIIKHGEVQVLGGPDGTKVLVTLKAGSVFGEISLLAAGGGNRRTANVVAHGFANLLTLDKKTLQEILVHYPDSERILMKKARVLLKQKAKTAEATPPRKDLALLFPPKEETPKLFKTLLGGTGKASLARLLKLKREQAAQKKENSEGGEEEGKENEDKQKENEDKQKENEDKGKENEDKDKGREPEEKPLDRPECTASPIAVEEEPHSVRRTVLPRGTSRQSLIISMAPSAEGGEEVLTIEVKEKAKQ
Assay: Inside-out patch-clamp recording of channels expressed in Xenopus oocytes (CNGB3 F525N)
Format: biochemical
Details: representative patch, Figure 5A; read-out: K1/2,CPT-cAMP, representative dose-response
OBSERVED PROPERTY: EC50 (µM)
The reply should contain only the number, in µM.

In: Recorded EC50 of Nc1ncnc2c1nc(Sc1ccc(Cl)cc1)n2[C@@H]1O[C@@H]2COP(=O)(O)O[C@H]2[C@H]1O [CPT-cAMP, CPT-adenosine 3′,5′-cyclic monophosphate] , please.
Out: 10.8

----------
Target: CNGA3 plus CNGB3-F525N channels (Homo sapiens, UniProt Q16281+Q9NQW8, F525N)
Construct: expressed in transfected cells; host or cells: Xenopus laevis oocytes injected with cRNA transcribed from pGEMHE constructs
Assay: Inside-out patch-clamp recording of channels expressed in Xenopus oocytes (CNGB3 F525N)
Format: biochemical
Settings: Hill fit; mean±SEM, n=15; read-out: apparent affinity K1/2, CPT-cAMP (channel activation)
OBSERVED PROPERTY: EC50 (µM)
Provide the reading as a plain figure in µM.

In: Find the recorded EC50 belonging to Nc1ncnc2c1nc(Sc1ccc(Cl)cc1)n2[C@@H]1O[C@@H]2COP(=O)(O)O[C@H]2[C@H]1O [CPT-cAMP, CPT-adenosine 3′,5′-cyclic monophosphate] and report it.
Out: 13.8
